target: horseradish peroxidase (HRP) tagged delF508-CFTR (Homo sapiens, UniProt P13569, DEL508-508); construct: expressed in transfected cells; experiment: Measurement of delF508-CFTR-HRP surface expression in CFBE41o- cells; type: cell-based; conditions: CFBE41o- cells; mean of at least two replicates; read-out: DelF508-CFTR-HRP EC50
Sequence (P13569 with tags, fused parts or gaps DEL508-508): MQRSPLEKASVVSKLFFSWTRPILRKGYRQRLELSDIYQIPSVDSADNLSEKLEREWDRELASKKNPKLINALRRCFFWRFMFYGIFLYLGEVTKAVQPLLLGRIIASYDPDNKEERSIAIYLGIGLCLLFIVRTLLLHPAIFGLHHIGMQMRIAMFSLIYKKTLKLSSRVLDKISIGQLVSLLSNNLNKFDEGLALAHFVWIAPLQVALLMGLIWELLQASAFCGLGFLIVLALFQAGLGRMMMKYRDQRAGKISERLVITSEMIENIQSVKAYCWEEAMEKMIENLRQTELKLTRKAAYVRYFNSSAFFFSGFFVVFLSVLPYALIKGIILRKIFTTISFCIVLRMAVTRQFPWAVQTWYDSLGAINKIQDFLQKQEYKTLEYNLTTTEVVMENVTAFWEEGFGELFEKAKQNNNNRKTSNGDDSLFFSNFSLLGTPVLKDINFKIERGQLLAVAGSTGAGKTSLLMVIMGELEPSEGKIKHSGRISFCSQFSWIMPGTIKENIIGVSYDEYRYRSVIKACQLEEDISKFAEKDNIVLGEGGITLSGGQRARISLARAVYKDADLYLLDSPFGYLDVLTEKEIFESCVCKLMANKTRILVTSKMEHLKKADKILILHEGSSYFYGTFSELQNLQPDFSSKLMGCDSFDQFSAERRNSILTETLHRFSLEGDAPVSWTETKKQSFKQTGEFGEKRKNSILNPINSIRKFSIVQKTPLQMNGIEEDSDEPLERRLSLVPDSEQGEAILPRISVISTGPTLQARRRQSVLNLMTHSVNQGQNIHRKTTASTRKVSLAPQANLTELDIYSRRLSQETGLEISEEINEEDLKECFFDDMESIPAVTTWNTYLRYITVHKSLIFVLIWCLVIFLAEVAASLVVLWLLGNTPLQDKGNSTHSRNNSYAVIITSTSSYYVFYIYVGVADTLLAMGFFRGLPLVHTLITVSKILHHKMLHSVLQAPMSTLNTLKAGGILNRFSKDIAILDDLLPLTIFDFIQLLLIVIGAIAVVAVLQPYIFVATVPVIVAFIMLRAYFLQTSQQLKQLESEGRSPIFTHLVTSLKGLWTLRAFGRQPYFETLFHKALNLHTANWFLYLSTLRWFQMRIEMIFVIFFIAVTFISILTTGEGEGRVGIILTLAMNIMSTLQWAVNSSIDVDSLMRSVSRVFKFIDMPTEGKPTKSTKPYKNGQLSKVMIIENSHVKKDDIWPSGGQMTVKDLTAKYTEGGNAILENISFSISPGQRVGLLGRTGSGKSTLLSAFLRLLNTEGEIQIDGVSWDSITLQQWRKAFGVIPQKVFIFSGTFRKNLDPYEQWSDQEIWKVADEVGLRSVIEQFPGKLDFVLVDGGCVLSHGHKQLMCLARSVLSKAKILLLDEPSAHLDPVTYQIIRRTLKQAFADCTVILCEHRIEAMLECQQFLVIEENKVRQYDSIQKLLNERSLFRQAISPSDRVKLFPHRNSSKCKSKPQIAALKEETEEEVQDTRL
// classify: if (EC50 < 2000 nM) Y else N

CC(C)COc1ccccc1-c1nc(NS(=O)(=O)c2cccc(N3CCC(C)(C(=O)O)CC3)n2)ccc1C(F)(F)F :: Y
CC1(C(=O)O)CCN(c2cccc(S(=O)(=O)Nc3ccc(C(F)(F)F)c(-c4ccccc4OCC(F)(F)F)n3)n2)CC1 :: N
CCc1ccccc1-c1nc(S(=O)(=O)Nc2cccc(N3CCC(C)(C(=O)O)CC3)n2)ccc1C(F)(F)F :: N

Request: Threshold test, EC50 < 2000 nM: COc1ccc(Cl)cc1-c1nc(NS(=O)(=O)c2cccc(N3CCC[C@@](C)(C(=O)O)C3)n2)ccc1C(F)(F)F
Response: Y

Request: Threshold test, EC50 < 2000 nM: CC1(C(=O)O)CCCN(c2cccc(S(=O)(=O)Nc3ccc(C(F)(F)F)c(-c4ccccc4CO)n3)n2)C1 (stereo not shown)
Response: N

Request: Threshold test, EC50 < 2000 nM: CCc1ccccc1-c1nc(NS(=O)(=O)c2cccc(N3CCC[C@@](C)(C(=O)O)C3)n2)ccc1Cl
Response: Y

Request: Threshold test, EC50 < 2000 nM: Cc1ccccc1-c1nc(NS(=O)(=O)c2cccc(NC3CCC(C(=O)O)C3)n2)ccc1C(F)(F)F (mixture of isomers)
Response: N

====

Biological target: delF508-CFTR (Homo sapiens, UniProt P13569, DEL508-508)
Construct: functional activity of the CFTR channel (Chloride ion transport) in patient derived primary human bronchial epithelial cells; host or cells: patient-derived primary human bronchial epithelial cells (delF508-CFTR)
Sequence (P13569 with tags, fused parts or gaps DEL508-508): as above
Assay: Measurement of delF508-CFTR functional activity in primary human bronchial epithelial cells (HBECs) using Multi-Transepithelial Clamp Circuit (MTECC-24) assay
Format: cell-based
Conditions: primary CF HBECs; test compound added 24h before assay plus potentiator; relative to reference combination (2 μM corrector + 0.5 μM potentiator)
Procedure: [formula] Measurement of delF508-CFTR Functional Activity in Primary Human Bronchial Epithelial Cells (HBECs) Using Multi-Transepithelial Clamp Circuit (MTECC-24) Assay […] Modulators were added sequentially as follows while the MTECC24 instrument recorded the equivalent short circuit current (Ieq): […]
Counter-ions that a name gives are not always drawn.
Exercise: for every item that follows, state its recorded MTECC24 CFHBEC- Amax %.
Quick note: number first, unit second.

Here's what some known entries look like.
Cc1ccccc1-c1nc(NS(=O)(=O)c2cccc(N3CC4CCC(C3)N4)n2)ccc1C(F)(F)F [Example 181, Hydrochloride] :: 101.5%
Cc1ccccc1-c1nc(NS(=O)(=O)c2cccc(N3CCN(CC(N)=O)CC3)n2)ccc1C(F)(F)F [Example 183] :: 67.8%
Cc1ccc(C(F)(F)F)cc1-c1nc(NS(=O)(=O)c2cccc(N3CC(C)(O)C3)n2)ccc1Cl [Example 212] :: 68.0%
Cc1ccccc1-c1nc(NS(=O)(=O)c2cccc(N[C@@H]3COCC[C@@H]3O)n2)ccc1C(F)(F)F (racemic) [Example 280] :: 96.3%
Cc1ccccc1-c1nc(NS(=O)(=O)c2cccc(N[C@H]3C[C@H](O)C3)n2)ccc1C(F)(F)F [Example 284] :: 85.2%

Your task in this section: give MTECC24 CFHBEC- Amax % for each listed record.
1. O=S(=O)(Nc1ccc(C(F)(F)F)c(-c2ccccc2Cl)n1)c1cccc(N2CCNCC2)n1 [Example 150, hydrochloride]
2. CC1(C(=O)O)CCCN(c2cccc(S(=O)(=O)Nc3ccc(C(F)(F)F)c(-c4ccccc4C4CCC4)n3)n2)C1 (stereo not shown) [Example 368]

Response:
1. 64.4%
2. 66.2%
